// provenance: patent US20230017532A1

tested on: Acinetobacter baumannii ATCC17978; experiment: Antimicrobial susceptibility testing: 90% growth inhibitory concentration (IC90) determination, Iso-Sensitest broth, OD 600 nm; type: cell-based; conditions: Acinetobacter baumannii, ATCC17978, 16 h, 90% growth inhibitory concentration, Acinetobacter baumannii ATCC17978, Iso-Sensitest broth, OD 600 nm over 16 h; read-out: ATCC 17978 IC90
Structures can show the parent of a compound that is named as a salt.
measurement.label: IC90 (µM)

(P) CCc1cc(Nc2nccn3c(-c4ccc(OC(F)F)c(F)c4F)cnc23)ccc1C(=O)NCCOCCN(C)CC(=O)O [Example 51, trifluoroacetate]
(Q) Cc1cc(Nc2nccn3c(-c4ccc(OC(F)F)cc4)cnc23)ccc1C(=O)NCCOCCN1CC[C@H]2COC[C@@H]2C1
Q) // returns P or Q , whichever has the lower IC90 Please respond with the label that marks your chosen entry.
A) P
(P: 0.3 µM, Q: 0.47 µM)

(I) Cc1cc(Nc2nccn3c(-c4ccc(OC(F)F)cc4)cnc23)ccc1C(=O)NCCOCCN=C(N(C)C)N(C)C
(II) C#CCOc1ccc(-c2cnc3c(Nc4ccc(C(=O)NCCCNCCO)c(CC)c4)nccn23)c(F)c1F
Q) Endpoint returns whichever of I and II has the numerically higher IC90. Please respond with the label that marks your chosen entry.
A) I

(P) Cc1cc(Nc2nccn3c(-c4ccc(OC(F)F)cc4)cnc23)ccc1C(=O)NCCOCCOCCOCCO
(Q) CCc1cc(Nc2nccn3c(-c4ccc(OCC#N)c(F)c4F)cnc23)ccc1C(=O)NCCOCCN(C)C
Q) Endpoint returns whichever of P and Q has the numerically higher IC90. Please respond with the label that marks your chosen entry.
A) P
(P: 1.6 µM, Q: 0.16 µM)
